assay: Cytotoxicity against human MIAPaCa2 cells assessed as cell growth inhibition after 3 days by presto blue dye based plate reader method; format: functional; conditions: MIA PaCa-2, 72 h
pIC50: −log10 of the molar value.

compound	pIC50
C=C1CC2(OC1=O)C(=O)Nc1c(C)ccc(C)c12 (stereo unspecified)	6.05
C=C1C(=O)O[C@@H]2C3O[C@]3(C)CC/C=C(\C)CC[C@@H]12 (stereo partly specified)	5.01
CCC(=O)N1CCC[C@@H](n2nc(-c3ccc(Oc4ccccc4)cc3)c3c(N)ncnc32)C1	5.09
C/C1=C\CC[C@@]2(C)O[C@H]2[C@H]2OC(=O)C(C)[C@@H]2CC1 (stereo partly specified)	4.07
C=CC(=O)N1CCC[C@@H](n2nc(-c3ccc(Oc4ccccc4)cc3)c3c(N)ncnc32)C1	4.78

Recorded values, source ChEMBL document CHEMBL3822425.
